# TGI annotations
- Test system: LOX IMVI melanoma
- PROCEDURE_SUMMARY: NCI tumour cell line growth inhibition, 48 h
ENDPOINT: TGI

>  <COMPOUND>
O=C(CSc1ncnc2nc[nH]c12)c1ccccc1

>  <TARGET_ENTITY>
LOX IMVI melanoma

>  <TEST_RESULT>
> 100 µM

$$$$
>  <COMPOUND>
C[N+]1([O-])CCC(O)(C2CC2)CC1 (stereo unspecified)

>  <TARGET_ENTITY>
LOX IMVI melanoma

>  <TEST_RESULT>
> 100 µM

$$$$
>  <COMPOUND>
OCCCCOC(c1ccccc1)(c1ccccc1)c1ccccc1

>  <TARGET_ENTITY>
LOX IMVI melanoma

>  <TEST_RESULT>
> 100 µM

$$$$
>  <COMPOUND>
CCc1ccccc1NC(=O)C1=C(C)NC(C)=C(C(=O)Nc2c(CC)cccc2CC)C1c1ccc2c(c1)OCO2 (stereo unspecified)

>  <TARGET_ENTITY>
LOX IMVI melanoma

>  <TEST_RESULT>
35.1 µM

$$$$
>  <COMPOUND>
CC(=O)Nc1ccccc1S(=O)(=O)c1ccccc1

>  <TARGET_ENTITY>
LOX IMVI melanoma

>  <TEST_RESULT>
> 100 µM

$$$$
>  <COMPOUND>
C(CCCCc1nnc(N2CCOCC2)o1)CCCc1nnc(N2CCOCC2)o1

>  <TARGET_ENTITY>
LOX IMVI melanoma

>  <TEST_RESULT>
> 100 µM

$$$$
>  <COMPOUND>
Cc1nc2ccc(Cl)cc2c(Cl)c1CCCl

>  <TARGET_ENTITY>
LOX IMVI melanoma

>  <TEST_RESULT>
> 100 µM

$$$$
>  <COMPOUND>
O=C1CSC(c2ccc([N+](=O)[O-])cc2)N1c1nc(-c2ccc3c(c2)CCCC3)cs1 (stereo unspecified)

>  <TARGET_ENTITY>
LOX IMVI melanoma

>  <TEST_RESULT>
> 100 µM

$$$$
>  <COMPOUND>
CC1(C)[C@@H]2CC[C@@]1(C)C1(SS1=O)C21Cc2ccccc2C1 (stereo partly specified)

>  <TARGET_ENTITY>
LOX IMVI melanoma

>  <TEST_RESULT>
28.5 µM

$$$$
>  <COMPOUND>
C#C[C@@]1(O)[C@@H](CO)O[C@@H](n2cc(Br)c3c(N)ncnc32)[C@@H]1O

>  <TARGET_ENTITY>
LOX IMVI melanoma

>  <TEST_RESULT>
0.249 µM

$$$$
>  <COMPOUND>
COc1ccc(C2Oc3ccc(Cl)cc3C=C2[N+](=O)[O-])cc1OC (stereo unspecified)

>  <TARGET_ENTITY>
LOX IMVI melanoma

>  <TEST_RESULT>
1.43 µM

$$$$

----------
TGI for assorted compounds
- Tested on: SK-MEL-5 melanoma
- PROCEDURE_SUMMARY: NCI tumour cell line growth inhibition, 48 h
Where a SMILES comes first, the peptide text is derived from it. The star is where a group is joined. Boc = CC(C)(C)OC(=O)*

>  <COMPOUND>
N#CC1C(=O)C(=O)N(c2ccccc2)C1=O (configuration not stated)

>  <TGI>
> 100 µM

$$$$
>  <COMPOUND>
CCN(CC)CC1CCCCN1CC(=O)N1c2ccccc2NC(=O)c2ccccc21 (configuration not stated)

>  <TGI>
> 100 µM

$$$$
>  <COMPOUND>
COc1ccc2cc1Oc1ccc(cc1)CC1c3cc(OC)c(cc3CCN1C)Oc1c(OC)c(OC)cc3c1C(C2)N(C)CC3 (configuration not stated)

>  <TGI>
15.9 µM

$$$$
>  <COMPOUND>
CCOC(=O)C1(C)CCCc2sc(N)c(C#N)c21 (configuration not stated)

>  <TGI>
> 100 µM

$$$$
>  <COMPOUND>
COc1ccc2c(c1)N=C(N)n1c(nc3ccccc31)S2

>  <TGI>
20.8 µM

$$$$
>  <COMPOUND>
C=Cc1c(C)c(O)cc2c1-c1ccc(O)c(C)c1CC2

>  <TGI>
33 µM

$$$$
>  <COMPOUND>
CC1(C)S[C@H](c2ccccc2C(=O)O)N[C@@H]1CC(=O)O

>  <TGI>
> 100 µM

$$$$
>  <COMPOUND>
COc1cc(O)cc2oc(-c3ccc(O)cc3)cc(=O)c12

>  <TGI>
> 100 µM

$$$$
>  <COMPOUND>
O=C1CSC(c2ccc([N+](=O)[O-])cc2)N1c1nc(-c2ccc3c(c2)CCCC3)cs1 (configuration not stated)

>  <TGI>
> 100 µM

$$$$
>  <COMPOUND>
N#CC1=C(N)OC2=C(CCCc3ccccc32)C1c1ccc([N+](=O)[O-])cc1 (configuration not stated)

>  <TGI>
28.3 µM

$$$$
>  <COMPOUND>
COC1(OC)CC2CCCCC2=C(C)N1S(=O)(=O)c1ccccc1 (configuration not stated)

>  <TGI>
> 100 µM

$$$$
>  <COMPOUND>
Oc1ccc[n+](Cc2ccccc2)c1

>  <TGI>
> 100 µM

$$$$
>  <COMPOUND>
CC(C)(C)OC(=O)NC(Cc1ccccc1)C(=O)N1CCCC1C(N)=O (stereo not drawn) (Boc-Phe-Pro-NH2; configuration not given here)

>  <TGI>
> 100 µM

$$$$
>  <COMPOUND>
Cc1ccc2cc3c(cc(C)c4ccccc43)c3c2c1CC3

>  <TGI>
> 100 µM

$$$$
>  <COMPOUND>
ClC(Cl)c1nc(-c2ccccc2)n2nc(-c3ccccc3)cc2n1

>  <TGI>
> 100 µM

$$$$
>  <COMPOUND>
COc1ccc(NC(=O)NS(=O)(=O)c2ccc(C)cc2)nn1

>  <TGI>
> 100 µM

$$$$
>  <COMPOUND>
N#CCCC1(CCC#N)CCCCCCC(CCC#N)(CCC#N)C(=O)C1=O

>  <TGI>
> 100 µM

$$$$
>  <COMPOUND>
O=C(O)C(F)(F)C(F)(F)C(F)(F)C(F)(F)C(F)(F)C(F)(F)C(F)(F)C(F)(F)F

>  <TGI>
> 100 µM

$$$$
>  <COMPOUND>
COC1CC(Br)(C#N)C1 (configuration not stated)

>  <TGI>
> 100 µM

$$$$
>  <COMPOUND>
Nc1nc2c(c(=O)[nH]1)CN(CCCN1CCOCC1)CN2

>  <TGI>
> 100 µM

$$$$
>  <COMPOUND>
O=C(CC1(O)C(=O)Nc2ccccc21)c1ccc2ccccc2c1 (configuration not stated)

>  <TGI>
> 100 µM

$$$$
>  <COMPOUND>
[N-]=[N+]=NCC1OC(n2cnc3c(N)ncnc32)C2OC12 (configuration not stated)

>  <TGI>
> 100 µM

$$$$
